Data provenance: ChEMBL document CHEMBL4270495

Test system: EA.hy 926
Experiment: Cytotoxicity in human EAhy926 cells assessed as reduction in cell viability incubated for 72 hrs by MTT assay
Assay type: cell-based
Conditions: EA.hy 926, 72 h
pIC50: −log10 of the molar value.
Record form. Attribute: pIC50. Fill in for each entry.

Guide cases for pIC50, answers given:
CC1(C)[C@@H](O)CC[C@]2(C)[C@H]3C(=O)C=C4[C@H]5C[C@@](C)(C(=O)O)CC[C@]5(C)CC[C@@]4(C)[C@]3(C)CC[C@@H]12; < 4.00
COc1ccc(/C=C/C(=O)O[C@H]2CC[C@]3(C)[C@H]4C(=O)C=C5[C@H]6C[C@@](C)(C(=O)O)CC[C@]6(C)CC[C@@]5(C)[C@]4(C)CC[C@H]3C2(C)C)cc1; < 4.30

Now look at this one.
For COc1ccccc1/C=C/C(=O)O[C@H]1CC[C@]2(C)[C@H]3C(=O)C=C4[C@H]5C[C@@](C)(C(=O)O)CC[C@]5(C)CC[C@@]4(C)[C@]3(C)CC[C@H]2C1(C)C the compound record lists pIC50 as < 4.30
